- Measurement target: oxytocin receptors (Rattus norvegicus)
- Sequence (P70536 whole entry): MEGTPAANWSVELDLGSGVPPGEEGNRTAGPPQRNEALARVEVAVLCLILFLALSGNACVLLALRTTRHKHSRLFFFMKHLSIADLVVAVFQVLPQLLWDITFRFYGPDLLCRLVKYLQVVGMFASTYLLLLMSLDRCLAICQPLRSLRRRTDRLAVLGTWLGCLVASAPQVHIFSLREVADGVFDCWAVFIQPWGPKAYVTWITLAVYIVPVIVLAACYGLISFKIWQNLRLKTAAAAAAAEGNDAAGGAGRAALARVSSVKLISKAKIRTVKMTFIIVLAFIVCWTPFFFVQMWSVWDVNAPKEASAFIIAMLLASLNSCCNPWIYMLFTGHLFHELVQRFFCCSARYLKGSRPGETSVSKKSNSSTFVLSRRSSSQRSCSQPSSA
- Assay method text: Oxytocin Receptor Binding
- Experimental parameters: rat uterine membranes, [3H]oxytocin
Where a name gives a salt, the structure may show the parent alone.
Property: IC50; scope: individual compounds
Kindly answer with a numeric value in nM, unit omitted.

These solved cases illustrate the format of a correct answer.
O=C(Nc1ccc(C(=O)N2Cc3cccn3Cc3ccccc32)cn1)c1ccccc1[N+](=O)[O-] [Example 43] = 920
Cc1ccccc1C(=O)Nc1ncc(C(=O)N2Cc3cccn3Cc3ccccc32)cc1Br [Example 12] = 800

What measured IC50 goes with CN(C)c1ncccc1C(=O)Nc1ccc(C(=O)N2Cc3cccn3Cc3ccccc32)cc1 [Example 332, Hydrochloride] ? 830

What measured IC50 goes with O=C(c1ccc(SC2CCCCC2)nc1)N1Cc2cccn2Cc2ccccc21 [Example 288] ? 1360
